Quick reference for PBM binding z-score among some sequences
system: RXRa DBDmut IVT, anti-RXR (DBD mutation: RXRa K156A/R161A, NR concentration 90 nM); assay: PBM binding z-score (relative to random genomic background probes); higher = stronger binding; sequences stand for … in GC…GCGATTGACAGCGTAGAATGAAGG
parameterMeasured: PBM binding z-score

chainSequence: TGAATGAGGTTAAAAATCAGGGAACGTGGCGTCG
parameterMeasured: PBM binding z-score
result: 1.26

chainSequence: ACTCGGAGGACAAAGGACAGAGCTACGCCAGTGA
parameterMeasured: PBM binding z-score
result: 0.398

chainSequence: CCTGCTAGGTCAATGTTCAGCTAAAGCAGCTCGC
parameterMeasured: PBM binding z-score
result: 1.93

chainSequence: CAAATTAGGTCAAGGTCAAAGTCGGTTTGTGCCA
parameterMeasured: PBM binding z-score
result: 3.32

chainSequence: TCTAGCAGGCCAGAGGGTCATTCAAGAGGTACGG
parameterMeasured: PBM binding z-score
result: 0.504

chainSequence: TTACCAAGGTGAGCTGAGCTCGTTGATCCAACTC
parameterMeasured: PBM binding z-score
result: -0.78

chainSequence: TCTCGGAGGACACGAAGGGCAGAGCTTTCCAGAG
parameterMeasured: PBM binding z-score
result: 0.216

chainSequence: ATATGTAGGTTATCGGGTTATTCAGTTTGCGCAT
parameterMeasured: PBM binding z-score
result: 1.14

chainSequence: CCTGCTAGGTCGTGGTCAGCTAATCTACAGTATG
parameterMeasured: PBM binding z-score
result: 0.759

chainSequence: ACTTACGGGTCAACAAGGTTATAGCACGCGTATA
parameterMeasured: PBM binding z-score
result: 2.33

chainSequence: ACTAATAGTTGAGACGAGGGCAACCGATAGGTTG
parameterMeasured: PBM binding z-score
result: 0.345

chainSequence: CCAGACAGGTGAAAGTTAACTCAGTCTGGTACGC
parameterMeasured: PBM binding z-score
result: -0.00485

chainSequence: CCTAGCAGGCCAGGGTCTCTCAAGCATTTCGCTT
parameterMeasured: PBM binding z-score
result: -0.912

chainSequence: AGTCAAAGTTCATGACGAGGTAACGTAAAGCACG
parameterMeasured: PBM binding z-score
result: 4.29

chainSequence: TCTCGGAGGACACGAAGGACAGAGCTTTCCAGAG
parameterMeasured: PBM binding z-score
result: 0.518

chainSequence: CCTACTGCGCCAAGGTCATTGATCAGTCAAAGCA
parameterMeasured: PBM binding z-score
result: 2.48

chainSequence: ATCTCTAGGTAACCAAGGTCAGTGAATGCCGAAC
parameterMeasured: PBM binding z-score
result: 0.51

chainSequence: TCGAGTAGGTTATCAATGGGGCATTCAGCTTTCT
parameterMeasured: PBM binding z-score
result: 0.822

chainSequence: AGAACGAGGGCAATGAGTAGATAGCACGGGTGGC
parameterMeasured: PBM binding z-score
result: 1.67

chainSequence: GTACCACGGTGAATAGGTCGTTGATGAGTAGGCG
parameterMeasured: PBM binding z-score
result: -0.3

chainSequence: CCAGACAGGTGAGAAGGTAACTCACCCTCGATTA
parameterMeasured: PBM binding z-score
result: 0.134

chainSequence: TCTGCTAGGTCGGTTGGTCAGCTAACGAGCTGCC
parameterMeasured: PBM binding z-score
result: -0.000892

chainSequence: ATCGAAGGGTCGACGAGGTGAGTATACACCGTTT
parameterMeasured: PBM binding z-score
result: 0.234

chainSequence: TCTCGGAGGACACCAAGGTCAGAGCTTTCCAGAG
parameterMeasured: PBM binding z-score
result: 0.966

chainSequence: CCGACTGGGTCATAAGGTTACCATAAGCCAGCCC
parameterMeasured: PBM binding z-score
result: 0.935

chainSequence: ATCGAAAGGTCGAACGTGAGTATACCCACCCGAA
parameterMeasured: PBM binding z-score
result: 1.83

---

Quick reference for PBM binding z-score among some sequences
tested on: PPARa:RXRa (NR concentration 270 nM, RXRa partner concentration 90 nM); assay: PBM binding z-score (relative to random genomic background probes); higher = stronger binding; sequences stand for … in GC…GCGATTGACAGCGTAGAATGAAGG

chainSequence: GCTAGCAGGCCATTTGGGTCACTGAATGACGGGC
PBM binding z-score: 1.33
--
chainSequence: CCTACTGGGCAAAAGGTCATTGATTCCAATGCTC
PBM binding z-score: 5.57
--
chainSequence: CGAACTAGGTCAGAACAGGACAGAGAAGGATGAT
PBM binding z-score: 2.94
--
chainSequence: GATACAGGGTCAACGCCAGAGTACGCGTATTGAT
PBM binding z-score: 5.69
--
chainSequence: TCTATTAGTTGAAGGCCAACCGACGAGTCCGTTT
PBM binding z-score: 1.28
--
chainSequence: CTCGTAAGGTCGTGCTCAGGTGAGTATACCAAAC
PBM binding z-score: 3.48

---

Quick reference for PBM binding z-score among some sequences
system: RARg homodimer (NR concentration 270 nM); test: PBM binding z-score (relative to random genomic background probes); higher = stronger binding; sequences stand for … in GC…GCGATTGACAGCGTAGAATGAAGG

chainSequence: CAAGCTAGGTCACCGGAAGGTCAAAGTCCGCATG
targetOrTestSystem: RARg homodimer (NR concentration 270 nM)
PBM binding z-score: 7.81
//
chainSequence: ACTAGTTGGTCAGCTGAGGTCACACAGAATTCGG
targetOrTestSystem: RARg homodimer (NR concentration 270 nM)
PBM binding z-score: 4.44
//
chainSequence: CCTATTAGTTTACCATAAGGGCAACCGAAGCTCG
targetOrTestSystem: RARg homodimer (NR concentration 270 nM)
PBM binding z-score: 1.1
//
chainSequence: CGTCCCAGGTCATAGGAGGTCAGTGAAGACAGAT
targetOrTestSystem: RARg homodimer (NR concentration 270 nM)
PBM binding z-score: 5.84
//
chainSequence: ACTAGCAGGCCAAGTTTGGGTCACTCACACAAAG
targetOrTestSystem: RARg homodimer (NR concentration 270 nM)
PBM binding z-score: 1.68
//
chainSequence: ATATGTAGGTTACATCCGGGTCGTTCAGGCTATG
targetOrTestSystem: RARg homodimer (NR concentration 270 nM)
PBM binding z-score: 1.28
//
chainSequence: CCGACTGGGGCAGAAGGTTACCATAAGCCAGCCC
targetOrTestSystem: RARg homodimer (NR concentration 270 nM)
PBM binding z-score: 0.806
//
chainSequence: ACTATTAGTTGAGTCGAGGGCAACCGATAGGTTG
targetOrTestSystem: RARg homodimer (NR concentration 270 nM)
PBM binding z-score: 0.802
//
chainSequence: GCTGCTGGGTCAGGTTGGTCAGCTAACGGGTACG
targetOrTestSystem: RARg homodimer (NR concentration 270 nM)
PBM binding z-score: 2.78
//
chainSequence: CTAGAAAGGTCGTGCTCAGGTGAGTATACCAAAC
targetOrTestSystem: RARg homodimer (NR concentration 270 nM)
PBM binding z-score: 3.62
//
chainSequence: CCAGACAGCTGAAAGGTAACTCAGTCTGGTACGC
targetOrTestSystem: RARg homodimer (NR concentration 270 nM)
PBM binding z-score: -0.184
//
chainSequence: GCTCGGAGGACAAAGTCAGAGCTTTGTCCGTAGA
targetOrTestSystem: RARg homodimer (NR concentration 270 nM)
PBM binding z-score: -0.0287

---

system: THRa:RXRa (NR concentration 90 nM, RXRa partner concentration 90 nM); assay: PBM binding z-score (relative to random genomic background probes); higher = stronger binding; sequences stand for … in GC…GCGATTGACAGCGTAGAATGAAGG
Quick reference for PBM binding z-score among some sequences
parameterMeasured: PBM binding z-score

chainSequence: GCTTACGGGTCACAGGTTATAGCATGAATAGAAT
number: 2.86

chainSequence: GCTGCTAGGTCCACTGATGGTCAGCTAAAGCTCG
number: -0.256

chainSequence: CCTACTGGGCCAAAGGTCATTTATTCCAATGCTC
number: 3.27

chainSequence: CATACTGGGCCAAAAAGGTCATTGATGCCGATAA
number: 3.14

chainSequence: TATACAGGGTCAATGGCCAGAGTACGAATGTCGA
number: 3.22

chainSequence: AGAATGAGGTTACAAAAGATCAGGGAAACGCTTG
number: 2.6

chainSequence: ACTGACAGGTGAGTGAAGGTAACTCAGCTGGACG
number: 1.74

chainSequence: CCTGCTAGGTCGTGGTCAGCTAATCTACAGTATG
number: 0.876

chainSequence: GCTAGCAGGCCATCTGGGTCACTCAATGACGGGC
number: 1.62

chainSequence: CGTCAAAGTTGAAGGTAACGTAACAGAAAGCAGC
number: 0.402

chainSequence: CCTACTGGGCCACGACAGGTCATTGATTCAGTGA
number: 2.74

chainSequence: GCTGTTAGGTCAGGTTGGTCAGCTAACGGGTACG
number: 2.84

chainSequence: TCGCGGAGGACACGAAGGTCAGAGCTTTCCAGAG
number: 2.62

chainSequence: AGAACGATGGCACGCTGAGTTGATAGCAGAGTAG
number: -0.632

chainSequence: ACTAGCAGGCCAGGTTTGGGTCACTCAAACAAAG
number: 2.11

chainSequence: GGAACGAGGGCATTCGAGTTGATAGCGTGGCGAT
number: 3.13

chainSequence: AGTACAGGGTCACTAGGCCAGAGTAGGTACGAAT
number: 3.41

chainSequence: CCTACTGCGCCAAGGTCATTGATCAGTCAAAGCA
number: 3.54

chainSequence: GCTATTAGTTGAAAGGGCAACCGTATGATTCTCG
number: 0.799

chainSequence: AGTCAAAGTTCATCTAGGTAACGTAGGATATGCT
number: 3.08

chainSequence: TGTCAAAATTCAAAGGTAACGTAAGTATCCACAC
number: 1.16

chainSequence: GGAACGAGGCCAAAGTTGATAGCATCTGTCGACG
number: 0.667

chainSequence: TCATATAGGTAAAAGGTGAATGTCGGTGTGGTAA
number: 1.5

chainSequence: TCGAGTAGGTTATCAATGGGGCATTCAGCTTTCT
number: 0.0952

chainSequence: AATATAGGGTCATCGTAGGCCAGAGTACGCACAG
number: 4.67

chainSequence: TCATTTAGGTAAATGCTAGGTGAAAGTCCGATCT
number: 1.69
